# ASSAYED_SYSTEM: organic anion transporting polypeptide 1B1 (OATP1B1) (Homo sapiens)
# Sequence (Q9Y6L6 whole entry): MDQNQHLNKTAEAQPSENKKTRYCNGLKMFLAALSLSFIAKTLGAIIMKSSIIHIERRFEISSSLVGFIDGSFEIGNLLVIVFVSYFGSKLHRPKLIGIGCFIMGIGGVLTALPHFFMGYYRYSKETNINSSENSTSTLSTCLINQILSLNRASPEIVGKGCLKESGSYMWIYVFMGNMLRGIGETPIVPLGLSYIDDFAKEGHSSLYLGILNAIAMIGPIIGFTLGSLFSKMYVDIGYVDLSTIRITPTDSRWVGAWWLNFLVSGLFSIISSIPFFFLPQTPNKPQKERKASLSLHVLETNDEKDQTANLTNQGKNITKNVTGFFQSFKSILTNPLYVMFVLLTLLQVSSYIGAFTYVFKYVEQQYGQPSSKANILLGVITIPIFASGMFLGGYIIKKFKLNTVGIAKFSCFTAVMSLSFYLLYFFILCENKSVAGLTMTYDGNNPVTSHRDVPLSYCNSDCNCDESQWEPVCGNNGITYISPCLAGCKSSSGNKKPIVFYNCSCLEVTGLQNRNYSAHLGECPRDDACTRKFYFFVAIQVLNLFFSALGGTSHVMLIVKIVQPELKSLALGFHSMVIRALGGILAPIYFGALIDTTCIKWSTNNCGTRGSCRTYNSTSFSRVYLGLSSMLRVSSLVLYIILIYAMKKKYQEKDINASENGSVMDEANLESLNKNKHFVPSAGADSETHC
Square brackets hold non-standard residues; d marks the D form. Peptide text beside a SMILES is read from it. MeBmt = C/C=C/C[C@@H](C)[C@@H](O)[C@H](NC)C(=O)O; NMeL = CN[C@@H](CC(C)C)C(=O)O; NMeV = CN[C@H](C(=O)O)C(C)C; dHiv = CC(C)[C@@H](O)C(=O)O; dNMeA = CN[C@H](C)C(=O)O; Abu = CC[C@H](N)C(=O)O
Classify: class 1 when OATP1B fold Debio 025 is strictly less than 0.07; class 0 when OATP1B fold Debio 025 is not.

[
  {
    "COMPOUND": "C/C=C/C[C@@H](C)[C@@H](O)[C@H]1C(=O)N[C@@H](CC)C(=O)N(C)[C@H](C)C(=O)N(CC)[C@@H](C(C)C)C(=O)N[C@@H](C(C)C)C(=O)N(C)[C@@H](CC(C)C)C(=O)N[C@@H](C)C(=O)N[C@H](C)C(=O)N(C)[C@@H](CC(C)C)C(=O)N(C)[C@@H](CC(C)C)C(=O)N(C)[C@@H](C(C)C)C(=O)N1C [Debio 025, [D-MeAla]^3-[EtVal]^4-CsA, reference compound]",
    "CATEGORY": "class 0"
  },
  {
    "COMPOUND": "C/C=C/C[C@@H](C)[C@@H](O)[C@H]1C(=O)N[C@@H](CC)C(=O)N(C)[C@H](C)C(=O)N(C)[C@@H](C(C)C)C(=O)N[C@@H](CC(C)C)C(=O)N(C)[C@@H](CC(C)C)C(=O)NCC(=O)O[C@H](C(C)C)C(=O)N(C)[C@@H](CC(C)C)C(=O)N[C@@H](CC(C)C)C(=O)N(C)[C@@H](C(C)C)C(=O)N1C [(Ia)] (cyclo([Abu][dNMeA][NMeV]L[NMeL]G[dHiv][NMeL]L[NMeV][MeBmt]))",
    "CATEGORY": "class 1"
  },
  {
    "COMPOUND": "C/C=C/C[C@@H](C)[C@@H](O)[C@H]1C(=O)N[C@@H](C(C)C)C(=O)N(C)[C@H](C)C(=O)N(C)[C@@H](C(C)C)C(=O)N[C@@H]([C@@H](C)CC)C(=O)N(C)[C@@H](CC(C)C)C(=O)NCC(=O)O[C@H](C(C)C)C(=O)N(C)[C@@H](CC(C)C)C(=O)N[C@@H](CC(C)C)C(=O)N(C)[C@@H](C(C)C)C(=O)N1C [(Ic)] (cyclo(G[dHiv][NMeL]L[NMeV][MeBmt]V[dNMeA][NMeV]I[NMeL]))",
    "CATEGORY": "class 0"
  }
]

Now consider a different compound.
Problem: For the compound C/C=C/C[C@@H](C)[C@@H](O)[C@H]1C(=O)N[C@@H](C(C)C)C(=O)N(C)[C@H](C)C(=O)N(C)[C@@H](C(C)C)C(=O)N[C@@H](CC(C)C)C(=O)N(C)[C@@H](CC(C)C)C(=O)NCC(=O)O[C@H](C(C)C)C(=O)N(C)[C@@H](CC(C)C)C(=O)N[C@@H](CC(C)C)C(=O)N(C)[C@@H](C(C)C)C(=O)N1C [(If)] (cyclo(G[dHiv][NMeL]L[NMeV][MeBmt]V[dNMeA][NMeV]L[NMeL])) , is OATP1B fold Debio 025 under 0.07?
class 1

====

# ASSAY_DETAILS: Cytostatic/cytotoxic effect, MTT (MTS) assay in Huh 9-13 cells
# Format: cell-based
# RECORDED_CONDITIONS: human, Huh 9-13 cells containing the HCV genotype 1b Con1 replicon, metabolic activity reduced to 50% of untreated cells
Square brackets hold non-standard residues; d marks the D form. Peptide text beside a SMILES is read from it. MeBmt = C/C=C/C[C@@H](C)[C@@H](O)[C@H](NC)C(=O)O; NEtVal = CCN[C@H](C(=O)O)C(C)C; NMeL = CN[C@@H](CC(C)C)C(=O)O; NMeV = CN[C@H](C(=O)O)C(C)C; dHiv = CC(C)[C@@H](O)C(=O)O; NMeA = CN[C@@H](C)C(=O)O; dNMeA = CN[C@H](C)C(=O)O; Abu = CC[C@H](N)C(=O)O
Each record here notes measured CC50.
Give the value, in units of µM, as a plain number.

[
  {
    "MOLECULE": "C/C=C/C[C@@H](C)[C@@H](O)[C@H]1C(=O)N[C@@H](C(C)C)C(=O)N(C)[C@H](C)C(=O)N(CC)[C@@H](C(C)C)C(=O)N[C@@H](CC(C)C)C(=O)N(C)[C@@H](CC(C)C)C(=O)N[C@@H](C)C(=O)O[C@H](C(C)C)C(=O)N(C)[C@@H](CC(C)C)C(=O)N[C@@H](CC(C)C)C(=O)N(C)[C@@H](C(C)C)C(=O)N1C [(Ih)] (cyclo(A[dHiv][NMeL]L[NMeV][MeBmt]V[dNMeA][NEtVal]L[NMeL]))",
    "UNIT_STRING": "µM",
    "EXPERIMENTAL_RESULT": 20.5
  },
  {
    "MOLECULE": "C/C=C/C[C@@H](C)[C@@H](O)[C@H]1C(=O)N[C@@H](C(C)C)C(=O)N(C)[C@H](C)C(=O)N(C)[C@@H](C(C)C)C(=O)N[C@@H](CC(C)C)C(=O)N(C)[C@@H](CC(C)C)C(=O)NCC(=O)O[C@H](C(C)C)C(=O)N(C)[C@@H](CC(C)C)C(=O)N[C@@H](CC(C)C)C(=O)N(C)[C@@H](C(C)C)C(=O)N1C [(If)] (cyclo(G[dHiv][NMeL]L[NMeV][MeBmt]V[dNMeA][NMeV]L[NMeL]))",
    "UNIT_STRING": "µM",
    "EXPERIMENTAL_RESULT": 81.8
  },
  {
    "MOLECULE": "C/C=C/C[C@@H](C)[C@@H](O)[C@H]1C(=O)N[C@@H](CC)C(=O)N(C)[C@H](C)C(=O)N(CC)[C@@H](C(C)C)C(=O)N[C@@H](C(C)C)C(=O)N(C)[C@@H](CC(C)C)C(=O)N[C@@H](C)C(=O)N[C@H](C)C(=O)N(C)[C@@H](CC(C)C)C(=O)N(C)[C@@H](CC(C)C)C(=O)N(C)[C@@H](C(C)C)C(=O)N1C [Debio 025, [D-MeAla]^3-[EtVal]^4-CsA, reference compound]",
    "UNIT_STRING": "µM",
    "EXPERIMENTAL_RESULT": 2.5
  }
]

Suppose we examine the molecule C/C=C/C[C@@H](C)[C@@H](O)[C@H]1C(=O)N[C@@H](CC)C(=O)N(C)[C@H](C)C(=O)N(C)[C@@H](C(C)C)C(=O)N[C@@H](C(C)C)C(=O)N(C)[C@@H](C)C(=O)N[C@@H](C)C(=O)O[C@H](C(C)C)C(=O)N(C)[C@@H](CC(C)C)C(=O)N[C@@H](CC(C)C)C(=O)N(C)[C@@H](C(C)C)C(=O)N1C [(Ie)] (cyclo(A[dHiv][NMeL]L[NMeV][MeBmt][Abu][dNMeA][NMeV]V[NMeA])) ; what CC50 value has been reported?
8.3

Endpoint output: CC50 of C/C=C/C[C@@H](C)[C@@H](O)[C@H]1C(=O)N[C@@H](CC)C(=O)N(C)[C@H](C)C(=O)N(C)[C@@H](C(C)C)C(=O)N[C@@H](CC(C)C)C(=O)N(C)[C@@H](CC(C)C)C(=O)N[C@@H](C)C(=O)O[C@H](C(C)C)C(=O)N(C)[C@@H](CC(C)C)C(=O)N[C@@H](CC(C)C)C(=O)N(C)[C@@H](C(C)C)C(=O)N1C [(Id)] (cyclo(A[dHiv][NMeL]L[NMeV][MeBmt][Abu][dNMeA][NMeV]L[NMeL])) . Value?
44.4

====

# ASSAYED_SYSTEM: sodium-taurocholate cotransporting polypeptide (NTCP) (Homo sapiens, UniProt Q14973)
# Sequence (Q14973 1-349): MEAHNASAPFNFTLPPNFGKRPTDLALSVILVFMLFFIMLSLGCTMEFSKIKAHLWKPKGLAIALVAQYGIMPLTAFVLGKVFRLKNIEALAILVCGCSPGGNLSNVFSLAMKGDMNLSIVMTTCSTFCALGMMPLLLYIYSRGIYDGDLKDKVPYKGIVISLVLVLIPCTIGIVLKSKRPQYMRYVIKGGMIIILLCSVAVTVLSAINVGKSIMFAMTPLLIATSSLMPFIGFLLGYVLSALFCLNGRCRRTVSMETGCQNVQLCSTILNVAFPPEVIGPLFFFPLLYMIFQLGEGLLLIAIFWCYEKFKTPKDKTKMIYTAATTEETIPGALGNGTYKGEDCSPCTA
# ASSAY_DETAILS: NTCP inhibition, taurocholate uptake in CHO cells
# RECORDED_CONDITIONS: probe taurocholate, CHO cells
Square brackets hold non-standard residues; d marks the D form. Peptide text beside a SMILES is read from it. MeBmt = C/C=C/C[C@@H](C)[C@@H](O)[C@H](NC)C(=O)O; NMeL = CN[C@@H](CC(C)C)C(=O)O; NMeV = CN[C@H](C(=O)O)C(C)C; dHiv = CC(C)[C@@H](O)C(=O)O; dNMeA = CN[C@H](C)C(=O)O
OBSERVABLE: IC50 (µM)
Give the value in µM but do not write µM after it.

Could you share which IC50 value was measured for C/C=C/C[C@@H](C)[C@@H](O)[C@H]1C(=O)N[C@@H](C(C)C)C(=O)N(C)[C@H](C)C(=O)N(C)[C@@H](C(C)C)C(=O)N[C@@H]([C@@H](C)CC)C(=O)N(C)[C@@H](CC(C)C)C(=O)NCC(=O)O[C@H](C(C)C)C(=O)N(C)[C@@H](CC(C)C)C(=O)N[C@@H](CC(C)C)C(=O)N(C)[C@@H](C(C)C)C(=O)N1C [(Ic)] (cyclo(G[dHiv][NMeL]L[NMeV][MeBmt]V[dNMeA][NMeV]I[NMeL])) ?
30
